FYI, the data here is from PubChem BioAssay (NCI).

Tested on: DU-145 prostate
Procedure summary: NCI tumour cell line growth inhibition, 48 h
Measured GI50, listed per entry for reference.
Experimental endpoint: GI50

compound=Cc1cc(Cl)cc(Cc2cc(Cl)cc(C)c2O)c1O value="3.47 µM"
compound=COc1ccc2c(c1)C(=O)c1c-2c(Nc2cccc(C(C)=O)c2)nc2ccccc12 value="11.7 µM"
compound=CN1CCN(Cc2cc(NC(=O)c3cccc(C#Cc4cccc5[nH]nc(N)c45)c3)cc(C(F)(F)F)c2)CC1 value="1.7 µM"
compound="CC1=C([Se]CC(OC(=O)[C@@H](CO)NC(=O)OC(C)(C)C)C(=O)NCCCCCC(=O)OCc2ccccc2)C(=O)c2ccccc2C1=O (some centres undefined)" value="1.82 µM"
compound=CCn1ccc(NS(=O)(=O)c2ccc(N)cc2)nc1=O value="> 100 µM"
compound=COc1cc(/C=C/C(=O)c2c(C)nc3ccccc3c2C)ccc1OCCCN1CCN(C(=O)c2ccco2)CC1 value="9.78 µM"
compound=[CH3][Sn]([CH3])([CH3])[O][N+](=O)[O-] value="> 10 µM"
compound=Cc1nccc2c3ccc(OCc4cn(-c5ccc(Cl)cc5)nn4)cc3n(CC(C)C)c12 value="11.5 µM"
compound=Cc1ccc(S(=O)(=O)Nc2ccc(-c3cc(-c4cccc(F)c4)c(C#N)c(N)n3)cc2)cc1 value="2.33 µM"
